From: paper PMC5540273

Test system: RSK1(Kin.Dom.1-N-terminal)
Construct: gene RPS6KA1
Settings: concentration: 1 μM, replicates: in singlicate; n = 1;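 further: KINOMEscan kinase panel screen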
readout: %Inh (%)
The reply should be a number in %, with the unit left off.

1. Cc1cccc(Cn2ccn3c(=O)cc(N4CCOCC4)nc23)c1 [GSK2297542]: 27
2. NS(=O)(=O)c1cccc(-c2ccc3nccc(-c4cccc(S(N)(=O)=O)c4)c3c2)c1 [GW867253]: 0
3. Cc1c2ccc(N(C)c3ccnc(Nc4cccc(S(N)(=O)=O)c4)n3)cc2nn1Cc1ccccc1.Cl.Cl [GW787226]: 0
4. CSc1ccc(-c2cc3ncnc(SCC(=O)O)c3s2)cc1: 9
5. CCc1nc(-c2cccc(C)c2)c(-c2ccnc(NCc3ccccc3)c2)s1: 0
6. O=C1NC(=O)C(N2CCc3ccccc32)=C1c1cccc(Cl)c1 [SB-408010]: 0
7. Cc1cn2c(=O)cc(N3CCOCC3)nc2n1Cc1cccc(Cl)c1Cl [GSK2334006]: 0
8. C[C@@H](Oc1cc(-n2cnc3ccc(NC(=O)NC(C)(C)C)cc32)sc1C(N)=O)c1ccccc1Cl [GSK346294]: 0

Quick one: %Inh of `CCc1ccnc(/C=C/c2n[nH]c3cc(Sc4ccccc4C(=O)NC)ccc23)c1` ?
0

# lookup: %Inh of Cc1nnc(-c2ccc3ncc(-c4ccc(S(C)=O)cc4)n3c2)o1 (stereo not shown)
0

// lookup %Inh for CNc1ncnc2[nH]ncc12 [SKF-18355]
0

Could you tell me which %Inh is on file for Cc1c(Cn2c(C)nn3c(=O)cc(N4CCOC(C)C4)nc23)cccc1C(F)(F)F (stereo not shown) [GSK2344444] ?
0

###

Each entry below carries its reported %Inh.
Tested on: CSK
Settings: concentration: 1 μM, replicates: in singlicate; n = 1
Provide the reading as a plain figure in %.

// worked examples, %Inh included
1) Cn1cc(-c2ccc3c(c2)CCN3C(=O)Cc2ccccc2Cl)c2c(N)ncnc21 [GSK2608885]: 97.6
2) CSc1ccc(-c2cc3ncnc(SCC(=O)O)c3s2)cc1: 0
3) Cc1ccc(NC(=O)c2ccnc(N3CCN(C)CC3)c2)cc1-c1ccc(C(=O)NCC2CC2)cc1 [GW775604]: 0
4) Cc1cn2c(=O)cc(N3CCOCC3)nc2n1Cc1cccc(Cl)c1Cl [GSK2334006]: 0

Continue with the next compound.
Write down the reported %Inh of COCCNC(=O)c1ccc(-c2cc(C(=O)NC3CC3)cc(F)c2C)cc1 [GW868318] , test system: CSK.
13

###

Recorded %Inh values for a group of compounds are listed next.
Tested on: MYO3A
Conditions: concentration: 1 μM, replicates: in singlicate; n = 1
Note: a bare number is incomplete; add the unit.

1) COc1ccc(COc2cc(-n3cnc4ccccc43)sc2C(N)=O)cc1: 0%
2) COc1ccc(CNC(=O)NC2CCN(c3ccnc(Nc4ccc(OC)cc4)n3)C2)cc1 (stereo not shown): 18%

Dear colleague, I am looking for the recorded %Inh of the following compound: Cc1nnc(-c2ccc3occ(-c4ccc(C(C)O)cc4)c3c2)o1 (stereo not shown)
0%

Which %Inh reading was recorded for the compound `COC(=O)Nc1nc2cc(Oc3ccc(NC(=O)Nc4cc(F)ccc4F)cc3)ccc2[nH]1.Cl` ?
33%

%Inh lookup needed for `NS(=O)(=O)c1cccc(-c2ccc3ncc(N4CCOCC4)nc3c2)c1` , thanks.
15%

# get_value(readout='%Inh', item= `Cn1ccc2ncnc(Oc3ccc(NC(=O)Nc4ccncc4)c(Cl)c3)c21` )
14%

// query %Inh value for entry `CCc1nc(-c2cccc(C)c2)c(-c2ccnc(NCc3ccccc3)c2)s1`
0%

###

Tested on: TESK1
Details: concentration: 1 μM, replicates: in singlicate; n = 1
A collection of molecules and their measured %Inh
Respond with the bare value in %.

Requested read-out %Inh, target or system TESK1, entry `NS(=O)(=O)c1cccc(-c2ccc3ncc(N4CCOCC4)nc3c2)c1`
0

Lab note: need %Inh for `O=C(c1ccc(-c2cc(-c3c[nH]nc3-c3ccccn3)ccn2)cc1)N1CCOCC1` on TESK1, anyone have it?
11

What reported %Inh corresponds to `C[C@@H](Oc1cc(-n2cnc3ccc(NC(=O)NC(C)(C)C)cc32)sc1C(N)=O)c1ccccc1Cl` on TESK1?
0

###

Test system: ACVR1B
Settings: concentration: 1 μM, replicates: in singlicate; n = 1
The reader will find reported %Inh values listed item by item below.
Note: unit % is implicit; provide only the numeric part.

1. c1ccc(-c2n[nH]cc2-c2ccnc3ccccc23)nc1: 79
2. O=C(Nc1cccc(-c2nn3ncccc3c2-c2ccnc(Nc3cccc(C(F)(F)F)c3)n2)c1)c1c(F)cccc1F: 0
3. CCc1nc(-c2cccc(C)c2)c(-c2ccnc(NCc3ccccc3)c2)s1: 0
4. Cc1nnc(-c2ccc3ncc(-c4ccc(S(C)=O)cc4)n3c2)o1 (centres unmarked): 0

Param item = `CCCCCc1nc2c(N)ncnc2n1CCCCC` ; retrieve measured %Inh.
26

###

Test system: MLK2
Conditions: concentration: 1 μM, replicates: in singlicate; n = 1
readout: %Inh (%)
State just the number; it will be interpreted in %.

1) Fc1ccc(-c2ncn(CCCN3CCOCC3)c2-c2cccnc2)cc1 [SB-211743]: 39
2) NS(=O)(=O)c1cccc(-c2ccc3nccc(-c4cccc(S(N)(=O)=O)c4)c3c2)c1 [GW867253]: 41
3) O=C1NC(=O)C(N2CCc3ccccc32)=C1c1cccc(Cl)c1 [SB-408010]: 0

Kindly consider the entry below.
Item COc1ccc(COc2cc(-n3cnc4ccccc43)sc2C(N)=O)cc1 [GSK1024304] with MLK2 - %Inh?
0

###

Test system: EPHB2
Settings: concentration: 1 μM, replicates: in singlicate; n = 1
readout: %Inh (%)
# output: bare number, implied unit %

1. O=C(c1ccc(-c2cc(-c3c[nH]nc3-c3ccccn3)ccn2)cc1)N1CCOCC1: 0
2. CCCCCc1nc2c(N)ncnc2n1CCCCC: 0
3. Cc1ccc(NC(=O)c2ccnc(N3CCN(C)CC3)c2)cc1-c1ccc(C(=O)NCC2CC2)cc1: 0
4. Cc1nnc(-c2ccc3ncc(-c4ccc(S(C)=O)cc4)n3c2)o1 (centres unmarked): 18

Field: next compound
Field: %Inh (EPHB2). Entry: `c1ccc(-c2n[nH]cc2-c2ccnc3ccccc23)nc1`
0

###

System: EPHB3
Conditions: concentration: 1 μM, replicates: in singlicate; n = 1
The entries below are paired with their reported %Inh.
Express it in %; write the number only.

1) Cl.Cl.Cl.Fc1ccc(-c2ncn(C3CCNCC3)c2-c2ccnc(Nc3ccccc3)n2)cc1 [SB-238039]: 0
2) Cn1ccc2ncnc(Oc3ccc(NC(=O)Nc4ccncc4)c(Cl)c3)c21: 6
3) O=C1Cc2cc(Nc3nc(NCc4cccc(S(=O)(=O)C(F)(F)F)c4)ncc3C(F)(F)F)ccc2N1: 1
4) CC(=O)Nc1ccc(COc2ccc(Nc3ccnc4cc(-c5ccccn5)ccc34)cc2)cc1.Cl [GW440148]: 8
5) N#Cc1ccc(-c2cc(-c3c[nH]nc3-c3ccccn3)ccn2)cc1 [GW693028]: 5

Tell me the measured %Inh of c1ccc(-c2cc(-c3c[nH]nc3-c3ccccn3)ccn2)cc1 [GW576604] , please.
0

// query %Inh value for entry O=c1cc(N2CCOCC2)nc2n(Cc3cccc(Cl)c3Cl)c(C3CC3)nn12 [GSK2358994]
7

Quick one: %Inh for Cc1nnc(-c2ccc(C)c(-c3ccc(C(=O)Nc4ccc(NS(C)(=O)=O)cc4)cc3)c2)o1 [GW702865] ?
0

###

System: DCAMKL3
Construct: gene DCLK3
Conditions: concentration: 1 μM, replicates: in singlicate; n = 1
Property: %Inh; scope: individual compounds
Field: numeric (%). Do not append units.

Solved cases below.
1) Nc1nc(-c2ccc3c(N)n[nH]c3c2)cc(N2CCCC2)n1: 0
2) COc1ccc(S(=O)(=O)NC2CCN(c3cc(C)nc(Nc4cccc(C#N)c4)n3)CC2)cc1.O=C(O)C(F)(F)F: 34
3) O=c1cc(N2CCOCC2)nc2n(Cc3cccc(Cl)c3Cl)c(C3CC3)nn12: 17

Form: Entry = `O=c1cc(N2CCOCC2)nc2n(Cc3cccc4ccccc34)ccn12` | System = DCAMKL3 | %Inh = ____
2

###

Recorded measurements of %Inh, one per entry
Test system: GRK3
Construct: gene ADRBK2
Conditions: concentration: 1 μM, replicates: in singlicate; n = 1
Give the number; % is assumed, so skip it.

Worked examples, 5 molecules total:
1) COc1cc(Nc2nccc(N3CCC(NC(=O)c4cccc(NC(C)=O)c4)C3)n2)cc(OC)c1OC (centres unmarked) [GSK1379754]: 18
2) O=C(NCCNc1ccnc(Nc2ccc(F)cc2)n1)c1cc2ccccc2s1 [GSK1379874]: 0
3) Cc1c2ccc(N(C)c3ccnc(Nc4cccc(S(N)(=O)=O)c4)n3)cc2nn1Cc1ccccc1.Cl.Cl [GW787226]: 0
4) Cc1ccc(NC(=O)c2ccnc(N3CCN(C)CC3)c2)cc1-c1ccc(C(=O)NCC2CC2)cc1 [GW775604]: 33
5) Cc1cccc(-c2nc(Nc3ccc4ncsc4c3)c3ccccc3n2)n1 [GW867588]: 0

Dear colleague, I am looking for the recorded %Inh of the following molecule: O=C1NC(=O)C(N2CCc3ccccc32)=C1c1cccc(Cl)c1 [SB-408010]
0

# get_value(readout='%Inh', item= CNc1ncnc2[nH]ncc12 [SKF-18355] )
0

Give its %Inh value. Item: NS(=O)(=O)c1cccc(-c2ccc3ncc(N4CCOCC4)nc3c2)c1 [GSK1535721]
30
